target: PDE11A (Homo sapiens); assay: PDE11A inhibition; assay type: biochemical; settings: IC50 PDE11A cGMP, cGMP as substrate
Sequence (Q9HCR9 whole entry): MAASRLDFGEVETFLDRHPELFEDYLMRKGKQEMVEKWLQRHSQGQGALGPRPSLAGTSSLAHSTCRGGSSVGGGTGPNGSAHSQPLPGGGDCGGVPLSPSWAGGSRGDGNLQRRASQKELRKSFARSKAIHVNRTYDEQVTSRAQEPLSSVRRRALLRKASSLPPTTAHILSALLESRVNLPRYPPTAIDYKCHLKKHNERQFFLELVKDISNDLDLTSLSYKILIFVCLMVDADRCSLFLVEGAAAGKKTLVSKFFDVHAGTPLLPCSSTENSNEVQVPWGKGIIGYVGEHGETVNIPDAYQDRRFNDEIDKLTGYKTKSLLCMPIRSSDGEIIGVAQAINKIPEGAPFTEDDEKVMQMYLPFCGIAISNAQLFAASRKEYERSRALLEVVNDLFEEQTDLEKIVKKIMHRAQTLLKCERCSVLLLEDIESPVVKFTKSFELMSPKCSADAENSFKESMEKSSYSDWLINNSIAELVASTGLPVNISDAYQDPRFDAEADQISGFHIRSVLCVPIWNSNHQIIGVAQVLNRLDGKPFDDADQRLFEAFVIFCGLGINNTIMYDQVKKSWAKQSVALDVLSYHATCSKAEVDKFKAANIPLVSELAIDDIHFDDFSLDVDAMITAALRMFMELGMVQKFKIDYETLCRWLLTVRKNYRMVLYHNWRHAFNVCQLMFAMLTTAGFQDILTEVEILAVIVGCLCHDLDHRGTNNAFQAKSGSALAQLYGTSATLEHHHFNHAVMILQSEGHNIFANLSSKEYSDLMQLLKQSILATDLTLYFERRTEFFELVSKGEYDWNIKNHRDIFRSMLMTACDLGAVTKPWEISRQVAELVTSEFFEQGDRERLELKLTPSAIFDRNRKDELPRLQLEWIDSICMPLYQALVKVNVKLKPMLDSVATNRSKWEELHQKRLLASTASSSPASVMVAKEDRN
observable: IC50 (nM)

[
  {
    "smiles_input": "CCN1CC(=O)N2[C@H](c3ccc(Cl)cc3)c3[nH]c4ccccc4c3C[C@@H]2C1=O",
    "unit_descriptor": "nM",
    "quantitative_result": 157
  }
]

----------
biological target: PDE4B (Homo sapiens, UniProt Q07343); test: PDE4B inhibition; format: biochemical
Sequence (Q07343 whole entry): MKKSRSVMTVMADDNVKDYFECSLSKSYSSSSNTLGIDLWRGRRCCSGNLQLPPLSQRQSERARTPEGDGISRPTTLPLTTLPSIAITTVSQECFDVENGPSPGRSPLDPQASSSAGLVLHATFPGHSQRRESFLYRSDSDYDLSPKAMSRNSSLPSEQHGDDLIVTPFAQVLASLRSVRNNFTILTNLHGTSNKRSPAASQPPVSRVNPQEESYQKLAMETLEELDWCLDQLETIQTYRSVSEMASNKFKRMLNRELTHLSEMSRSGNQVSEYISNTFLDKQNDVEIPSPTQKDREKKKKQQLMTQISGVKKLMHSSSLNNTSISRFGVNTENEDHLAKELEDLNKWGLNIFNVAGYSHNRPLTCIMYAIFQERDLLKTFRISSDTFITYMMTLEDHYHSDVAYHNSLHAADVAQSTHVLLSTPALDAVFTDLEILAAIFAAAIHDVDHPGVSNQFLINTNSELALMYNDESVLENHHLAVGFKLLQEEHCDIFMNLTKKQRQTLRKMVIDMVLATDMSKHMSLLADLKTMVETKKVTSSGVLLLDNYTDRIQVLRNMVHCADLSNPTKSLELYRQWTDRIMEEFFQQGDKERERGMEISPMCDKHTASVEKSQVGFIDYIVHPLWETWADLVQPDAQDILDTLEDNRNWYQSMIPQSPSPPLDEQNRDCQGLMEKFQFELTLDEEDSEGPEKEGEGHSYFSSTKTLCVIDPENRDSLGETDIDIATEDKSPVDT
pIC50: −log10 of the molar value.

[
  {
    "smiles_input": "CCN1CC(=O)N2[C@H](c3ccc(Cl)cc3)c3[nH]c4ccccc4c3C[C@@H]2C1=O",
    "pIC50": "< 4.30"
  }
]

----------
biological target: human PDE5 (Homo sapiens, UniProt O76074); assay: PDE5 inhibition, IMAP fluorescence polarization phosphodiesterase assay; assay type: biochemical
Reported IC50 values for a set of molecules
observable: IC50

[
  {
    "molecule": "O=C1[C@@H]2Cc3c([nH]c4ccccc34)[C@@H](c3ccc(Cl)cc3)N2C(=O)N1c1ccc(Cl)cc1 [XVI]",
    "observable": "IC50",
    "result": "1.09 µM"
  },
  {
    "molecule": "CCN1C(=O)[C@H]2Cc3c([nH]c4ccccc34)[C@@H](c3ccc(Cl)cc3)N2C1=O [V]",
    "observable": "IC50",
    "result": "1.1 µM"
  },
  {
    "molecule": "CCN1CC(=O)N2[C@@H](c3ccc(Cl)cc3)c3[nH]c4ccccc4c3C[C@@H]2C1=O [XXII]",
    "observable": "IC50",
    "result": "1.72 µM"
  },
  {
    "molecule": "CC(C)(C)N1C(=O)[C@@H]2Cc3c([nH]c4ccccc34)[C@@H](c3ccc(Cl)cc3)N2C1=O [XII]",
    "observable": "IC50",
    "result": "> 10 µM"
  },
  {
    "molecule": "CCN1CC(=O)N2[C@H](c3ccc(Cl)cc3)c3[nH]c4ccccc4c3C[C@H]2C1=O [XXIV]",
    "observable": "IC50",
    "result": "1.2 µM"
  },
  {
    "molecule": "CC(C)(C)N1C(=O)[C@H]2Cc3c([nH]c4ccccc34)[C@@H](c3ccc(Cl)cc3)N2C1=O [IX]",
    "observable": "IC50",
    "result": "0.6 µM"
  }
]

----------
target: human PDE5 (Homo sapiens, UniProt O76074); test: PDE5 inhibition, IMAP fluorescence polarization phosphodiesterase assay; type: biochemical; conditions: read-out: % cGMP inhibition (50 μM)
Reported inhibition at 50 µM values for a set of compounds

[
  {
    "smiles_input": "COC(=O)[C@@H]1Cc2c([nH]c3ccccc23)[C@H](c2ccc(Cl)cc2)N1",
    "unit_descriptor": "%",
    "inhibition at 50 µM": 9
  },
  {
    "smiles_input": "CC(C)(C)N1C(=O)[C@@H]2Cc3c([nH]c4ccccc34)[C@H](c3ccc(Cl)cc3)N2C1=O",
    "unit_descriptor": "%",
    "inhibition at 50 µM": 20
  },
  {
    "smiles_input": "COC(=O)[C@H]1Cc2c([nH]c3ccccc23)[C@H](c2ccc(Cl)cc2)N1C(=O)CCl",
    "unit_descriptor": "%",
    "inhibition at 50 µM": 6
  },
  {
    "smiles_input": "O=C1[C@@H]2Cc3c([nH]c4ccccc34)[C@H](c3ccc(Cl)cc3)N2C(=O)N1c1ccc(Cl)cc1",
    "unit_descriptor": "%",
    "inhibition at 50 µM": 33
  },
  {
    "smiles_input": "CCN1CC(=O)N2[C@H](c3ccc(Cl)cc3)c3[nH]c4ccccc4c3C[C@H]2C1=O",
    "unit_descriptor": "%",
    "inhibition at 50 µM": 87
  },
  {
    "smiles_input": "CC(C)(C)N1C(=O)[C@H]2Cc3c([nH]c4ccccc34)[C@@H](c3ccc(Cl)cc3)N2C1=O",
    "unit_descriptor": "%",
    "inhibition at 50 µM": 100
  },
  {
    "smiles_input": "CC(C)(C)N1CC(=O)N2[C@H](c3ccc(Cl)cc3)c3[nH]c4ccccc4c3C[C@H]2C1=O",
    "unit_descriptor": "%",
    "inhibition at 50 µM": 55
  },
  {
    "smiles_input": "CCN1CC(=O)N2[C@@H](c3ccc(Cl)cc3)c3[nH]c4ccccc4c3C[C@@H]2C1=O",
    "unit_descriptor": "%",
    "inhibition at 50 µM": 80
  },
  {
    "smiles_input": "CCN1C(=O)[C@H]2Cc3c([nH]c4ccccc34)[C@@H](c3ccc(Cl)cc3)N2C1=O",
    "unit_descriptor": "%",
    "inhibition at 50 µM": 85
  },
  {
    "smiles_input": "COC(=O)[C@@H]1Cc2c([nH]c3ccccc23)[C@@H](c2ccc(Cl)cc2)N1",
    "unit_descriptor": "%",
    "inhibition at 50 µM": 48
  }
]

----------
target: human PDE5 (Homo sapiens, UniProt O76074); assay: PDE5 inhibition, IMAP fluorescence polarization phosphodiesterase assay; format: biochemical; details: read-out: IC50 PDE5A; Table 5 PDE panel

[
  {
    "smiles_input": "CCN1CC(=O)N2[C@H](c3ccc(Cl)cc3)c3[nH]c4ccccc4c3C[C@@H]2C1=O",
    "IC50": "3 nM"
  }
]
